- target-desc: Casein kinase I isoform alpha (Homo sapiens, UniProt P48729)
- Sequence (P48729 whole entry, canonical isoform): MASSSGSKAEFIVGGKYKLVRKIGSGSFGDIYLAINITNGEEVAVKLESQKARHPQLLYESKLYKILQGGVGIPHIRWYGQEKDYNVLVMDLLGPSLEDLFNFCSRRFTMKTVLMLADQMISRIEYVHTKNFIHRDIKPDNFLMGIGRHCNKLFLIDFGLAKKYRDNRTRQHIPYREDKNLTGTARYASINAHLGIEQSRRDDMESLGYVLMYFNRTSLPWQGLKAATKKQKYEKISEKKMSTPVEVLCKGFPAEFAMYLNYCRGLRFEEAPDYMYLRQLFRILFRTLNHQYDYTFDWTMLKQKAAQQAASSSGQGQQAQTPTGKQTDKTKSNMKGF
- run-description: CSNK1A1 1uM ATP Assay
experimental-readout: pIC50
# pIC50: negative log10 of molar concentration; output just the value

In: For `Cn1ccc2[nH]c(-c3ccnc(NC(=O)Cc4ccc(F)cc4)c3)c(-c3ccccc3)c2c1=O` , what is its reported pIC50?
Out: 9.07

====

- target-desc: Casein kinase I isoform alpha (Homo sapiens, UniProt P48729)
- run-description: CSNK1A1 High ATP Assay
Give measured pIC50 for each item. Keep answers brief.
# pIC50: negative log10 of molar concentration; output just the value

In: Lab note: need pIC50 with Casein kinase I isoform alpha (Homo sapiens, UniProt P48729) for entry CN1CCc2[nH]c(-c3ccnc(NC(=O)[C@H]4C[C@H]4F)c3)c(Nc3ccccc3)c2C1=O (relative stereo; form 1) , please look it up.
Out: 7.62

In: Lab note: need pIC50 with Casein kinase I isoform alpha (Homo sapiens, UniProt P48729) for entry CN1CCc2[nH]c(-c3ccnc(NC(=O)[C@H]4C[C@H]4F)c3)c(Nc3ccccc3)c2C1=O (relative stereo; form 2) , please look it up.
Out: 7.20

In: Lab note: need pIC50 with Casein kinase I isoform alpha (Homo sapiens, UniProt P48729) for entry `O=c1[nH]ccc2[nH]c(-c3ccncc3F)c(Nc3ccccc3)c12` , please look it up.
Out: 7.39
